Values were extracted from the supplement of paper PMC12645437.

Task for the reader: assign each of the following sequences its reported log2 fold change of degron read counts.
Biological target: T1, CRBN, Q96SW2;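 further: pooled lentiviral library of zinc finger degron-EGFP fusions in mCherry-positive Jurkat cells, FACS-sorted after compound exposure, with degron abundance counted by next-generation sequencing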
T1 chain: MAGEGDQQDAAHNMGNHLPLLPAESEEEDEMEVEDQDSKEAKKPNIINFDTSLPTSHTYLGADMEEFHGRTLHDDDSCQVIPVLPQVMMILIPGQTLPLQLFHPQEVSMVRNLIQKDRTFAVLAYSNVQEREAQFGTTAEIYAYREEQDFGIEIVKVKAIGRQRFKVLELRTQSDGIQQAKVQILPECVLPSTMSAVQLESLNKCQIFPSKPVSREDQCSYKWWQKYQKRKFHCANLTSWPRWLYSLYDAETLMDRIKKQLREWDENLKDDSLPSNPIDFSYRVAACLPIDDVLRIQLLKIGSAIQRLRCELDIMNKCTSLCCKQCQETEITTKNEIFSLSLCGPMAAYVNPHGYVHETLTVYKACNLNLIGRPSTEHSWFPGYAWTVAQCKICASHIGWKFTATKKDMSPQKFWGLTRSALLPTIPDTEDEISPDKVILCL
Test: log2 fold change of degron read counts, EGFP-low vs EGFP+ sorted cells (limma voom), compound-induced degradation; higher = more compound-induced degradation of the degron-EGFP fusion; degrons are variants of IKZF1/3 zinc finger 2; compound dose not given here
Details: Jurkat; 18 h; compound: thalidomide
The full ranking holds about 8,300 sequences; the median of “log2 fold change of degron read counts, EGFP-low vs EGFP+ sorted cells (limma voom), compound-induced degradation” is about -1.1, and the highest 2% start at about 3.2. Only a selection was taken, and the highest values are over-represented in it overall.

Prompt line: What does the record list as log2 fold change of degron read counts for FYCNQCGHAFTQKGNLLRHIKL [46F_47Y_49N_50Q_52G_53H_54A_55F_67L_, Q9UKT9] ?
Response line: -2.66

Prompt line: // lookup log2 fold change of degron read counts for FQCDICGAHFTQKGNLLRHIKL [46F_47Q_49D_50I_52G_53A_54H_55F_67L_, Q9UKT9]
Response line: 1.82

Prompt line: Could you share which log2 fold change of degron read counts value was measured for FECDICGAHFTQKGNLLRHIKL [46F_47E_49D_50I_52G_53A_54H_55F_67L_, Q9UKT9] ?
Response line: -0.791

Prompt line: // returns reported log2 fold change of degron read counts for input FRCEQCGASFTQKGNLLRHIKL [46F_47R_49E_50Q_52G_53A_54S_55F_67L_, Q9UKT9]
Response line: -0.516

Prompt line: Consider the sequence shown here: FWCDICGAHFTQKGNLLRHIKL [46F_47W_49D_50I_52G_53A_54H_55F_67L_, Q9UKT9] What is its recorded log2 fold change of degron read counts?
Response line: -0.669

Prompt line: For the sequence FCCDICGAHFTQKGNLLRHIKL [46F_47C_49D_50I_52G_53A_54H_55F_67L_, Q9UKT9] , what log2 fold change of degron read counts is on record?
Response line: -0.916

Prompt line: Which log2 fold change of degron read counts is listed for LFCEICGFDCTQKGNLLRHIKL [46L_47F_49E_50I_52G_53F_54D_55C_67L_, Q9UKT9] ?
Response line: -1.77

Prompt line: I am curious: what log2 fold change of degron read counts value has been reported for LHCPICGFRCTQKGNLLRHIKL [46L_47H_49P_50I_52G_53F_54R_55C_67L_, Q9UKT9] ?
Response line: 1.74

Prompt line: Query (sequence): FQCDICGARFTQKGNLLRHIKL [46F_47Q_49D_50I_52G_53A_54R_55F_67L_, Q9UKT9] ; field requested: log2 fold change of degron read counts
Response line: 3.03

Prompt line: What does the record list as log2 fold change of degron read counts for LQCPICGFECTQKGNLLRHIKL [46L_47Q_49P_50I_52G_53F_54E_55C_67L_, Q9UKT9] ?
Response line: 3.44

Prompt line: Item LKCPICGFRCTQKGNLLRHIKL [46L_47K_49P_50I_52G_53F_54R_55C_67L_, Q9UKT9] has what recorded log2 fold change of degron read counts?
Response line: -0.57

Prompt line: What does the data say about its log2 fold change of degron read counts? Entry: LACPICGFRCTQKGNLLRHIKL [46L_47A_49P_50I_52G_53F_54R_55C_67L_, Q9UKT9]
Response line: 2.12

Prompt line: What log2 fold change of degron read counts value was documented for this sequence, FSCEICGAYFTQKGNLLRHIKL [46F_47S_49E_50I_52G_53A_54Y_55F_67L_, Q9UKT9] ?
Response line: 0.848

Prompt line: Quick one: log2 fold change of degron read counts of FQCEICGHAFTQKGNLLRHIKL [46F_47Q_49E_50I_52G_53H_54A_55F_67L_, Q9UKT9] ?
Response line: -1.5

Prompt line: Which log2 fold change of degron read counts reading was recorded for the sequence LKCNQCGFQCTQKGNLLRHIKL [46L_47K_49N_50Q_52G_53F_54Q_55C_67L_, Q9UKT9] ?
Response line: -2.48

Prompt line: Could you share which log2 fold change of degron read counts value was measured for FNCEICGRGFTQKGNLLRHIKL [46F_47N_49E_50I_52G_53R_54G_55F_67L_, Q9UKT9] ?
Response line: -2.43

Prompt line: What measured log2 fold change of degron read counts goes with FLCPQCGAIFTQKGNLLRHIKL [46F_47L_49P_50Q_52G_53A_54I_55F_67L_, Q9UKT9] ?
Response line: -0.881

Prompt line: Which log2 fold change of degron read counts is reported for this sequence? FQCPICGRLFTQKGNLLRHIKL [46F_47Q_49P_50I_52G_53R_54L_55F_67L_, Q9UKT9]
Response line: 2.29

Prompt line: Query: log2 fold change of degron read counts; subject: FTCEVCGAGFTQKGNLLRHIKL [46F_47T_49E_50V_52G_53A_54G_55F_67L_, Q9UKT9]
Response line: 2.32

Prompt line: Can you share its log2 fold change of degron read counts? I mean this sequence: LSCPICGFRCTQKGNLLRHIKL [46L_47S_49P_50I_52G_53F_54R_55C_67L_, Q9UKT9]
Response line: 2.27

Prompt line: For the sequence shown here, FYCDICGAHFTQKGNLLRHIKL [46F_47Y_49D_50I_52G_53A_54H_55F_67L_, Q9UKT9] , give the reported log2 fold change of degron read counts.
Response line: -1.03

Prompt line: I'd like to know its log2 fold change of degron read counts. The sequence in question is FTCPICGASFTQKGNLLRHIKL [46F_47T_49P_50I_52G_53A_54S_55F_67L_, Q9UKT9]
Response line: 3.23

Prompt line: What log2 fold change of degron read counts value was documented for this sequence, FFCEICGHMFTQKGNLLRHIKL [46F_47F_49E_50I_52G_53H_54M_55F_67L_, Q9UKT9] ?
Response line: -2.01

Prompt line: Consider the sequence shown here: FHCPICGASFTQKGNLLRHIKL [46F_47H_49P_50I_52G_53A_54S_55F_67L_, Q9UKT9] What is its recorded log2 fold change of degron read counts?
Response line: 0.926

Prompt line: log2 fold change of degron read counts lookup needed for FTCPICGHQFTQKGNLLRHIKL [46F_47T_49P_50I_52G_53H_54Q_55F_67L_, Q9UKT9] , thanks.
Response line: 2.28

Prompt line: Sample FECNQCGRHFTQKGNLLRHIKL [46F_47E_49N_50Q_52G_53R_54H_55F_67L_, Q9UKT9] — what was its log2 fold change of degron read counts?
Response line: -2.98

Prompt line: Query (sequence): LFCPICGFRCTQKGNLLRHIKL [46L_47F_49P_50I_52G_53F_54R_55C_67L_, Q9UKT9] ; field requested: log2 fold change of degron read counts
Response line: 1.69

Prompt line: Reported log2 fold change of degron read counts for LICPICGFPCTQKGNLLRHIKL [46L_47I_49P_50I_52G_53F_54P_55C_67L_, Q9UKT9] : what is it?
Response line: 1.78

Prompt line: Name the recorded log2 fold change of degron read counts for LMCPICGFECTQKGNLLRHIKL [46L_47M_49P_50I_52G_53F_54E_55C_67L_, Q9UKT9] .
Response line: 1.39
